molecular target: human MCH-1R (human, UniProt Q99705 1-353); experiment: cell-based or functional assay
Sequence (Q99705 whole entry, form in doubt): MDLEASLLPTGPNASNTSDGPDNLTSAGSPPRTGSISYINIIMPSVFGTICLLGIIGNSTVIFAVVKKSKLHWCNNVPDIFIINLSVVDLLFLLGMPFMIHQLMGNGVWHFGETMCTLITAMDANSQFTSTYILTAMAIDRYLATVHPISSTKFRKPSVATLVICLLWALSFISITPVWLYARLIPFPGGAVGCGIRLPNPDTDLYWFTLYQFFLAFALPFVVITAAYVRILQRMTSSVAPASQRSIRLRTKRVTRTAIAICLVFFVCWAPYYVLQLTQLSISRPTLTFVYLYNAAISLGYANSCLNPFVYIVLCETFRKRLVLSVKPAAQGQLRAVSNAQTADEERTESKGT
Bridges are numbered along the chain shown (N, C = ends). Where no end group is shown, it is not given here.
Listed binders paired with reported Activation % at 10 µM (aequorin functional assay)
Just the number please, in %, no unit attached.

Binder	Result Units	Experimental Value
DFDMLRCALGRVYRPCWQV (disulfide 7-16) [SEQ. ID. NO. 47]	%	56
DFDMLRCMLGRVYRPCWAV (disulfide 7-16, also called Ala^18) [SEQ. ID. NO. 55]	%	99
DFDMLRCMLGRAYRPCWQV (disulfide 7-16, also called Ala^12) [SEQ. ID. NO. 50]	%	95

If you can, please state the reported Activation % at 10 µM (aequorin functional assay) value of DFAMLRCMLGRVYRPCWQV (disulfide 7-16, also called Ala^3) [SEQ. ID. NO. 43] . 97

If you can, please state the reported Activation % at 10 µM (aequorin functional assay) value of DFDMLRCMLGRVYRPCWQV (ligand, disulfide 7-16 (inferred), cyclic 19-amino acid peptide; also called hMCH; mammalian MCH) [human MCH (melanin-concentrating hormone), SEQ. ID. NO. 1] . 100

If you can, please state the reported Activation % at 10 µM (aequorin functional assay) value of DFDMLRCMLGRVYRPCAQV (disulfide 7-16, also called Ala^17) [SEQ. ID. NO. 54] . 100

If you can, please state the reported Activation % at 10 µM (aequorin functional assay) value of DFDMARCMLGRVYRPCWQV (disulfide 7-16, also called Ala^5) [SEQ. ID. NO. 45] . 96

If you can, please state the reported Activation % at 10 µM (aequorin functional assay) value of DFDALRCMLGRVYRPCWQV (disulfide 7-16, also called Ala^4) [SEQ. ID. NO. 44] . 97
